# Procedure Text: Pharmacokinetic studies in mice
# Type: in vivo, male CD-1 mice
# Experimental Parameters: male, CD-1, mouse, plasma, po, 10 mg/kg, PO Dose 10 mpk calculated as free form, read-out: AUC0-24h
Metric Name: AUC(0-t) (ng·h/mL)
Give bare numbers, in ng·h/mL.

Exam item: Could you share which AUC(0-t) value was measured for Cc1cc(-c2c[nH]c3ncc(-c4cc(C)c5c(c4)CCN(C)C5)nc23)ccc1C(=O)N(C)C [Compound A free form amorphous] ?
Marked response: 1900

----------
# Procedure Text: Pharmacokinetic studies in mice
# Type: in vivo, male CD-1 mice
# Experimental Parameters: male, CD-1, mouse, plasma, iv, 1 mg/kg, IV Dose 1 mpk calculated as free form, read-out: AUC0-24h
# Method: Compound A free form amorphous (115.7 mg) was prepared by lyophilizing a suspension of compound A free form in water with a minimum amount of acetonitrile. Pharmacokinetic studies of Compound A were conducted in male CD-1 mice (Vital River, 8 weeks, 3 animals per dosing route) following Institutional Animal Care and Use Committee guidelines. […] The concentration of Compound A was determined by LC-MS-MS. […]
Metric Name: AUC(0-t) (ng·h/mL)
Give bare numbers, in ng·h/mL.

Exam item: Could you share which AUC(0-t) value was measured for Cc1cc(-c2c[nH]c3ncc(-c4cc(C)c5c(c4)CCN(C)C5)nc23)ccc1C(=O)N(C)C [Compound A free form amorphous] ?
Marked response: 344

----------
# Procedure Text: Pharmacokinetic studies in rats
# Type: in vivo, male SD rats
# Experimental Parameters: male, SD, rat, plasma, po, 10 mg/kg, PO Dose 10 mpk calculated as free form, read-out: tmax
Metric Name: tmax (h)
Give bare numbers, in h.

Exam item: Could you share which tmax value was measured for Cc1cc(-c2c[nH]c3ncc(-c4cc(C)c5c(c4)CCN(C)C5)nc23)ccc1C(=O)N(C)C [Compound A free form amorphous] ?
Marked response: 2

----------
# Procedure Text: Pharmacokinetic studies in rats
# Format: in vivo, male SD rats
# Experimental Parameters: male, SD, rat, plasma, po, 10 mg/kg, PO Dose 10 mpk calculated as free form, read-out: AUC0-24h
Metric Name: AUC(0-t) (ng·h/mL)
Give bare numbers, in ng·h/mL.

Exam item: Could you share which AUC(0-t) value was measured for Cc1cc(-c2c[nH]c3ncc(-c4cc(C)c5c(c4)CCN(C)C5)nc23)ccc1C(=O)N(C)C [Compound A free form amorphous] ?
Marked response: 1120

----------
# Procedure Text: Pharmacokinetic studies in rats
# Assay type: in vivo, male SD rats
# Experimental Parameters: male, SD, rat, plasma, iv, 1 mg/kg, IV Dose 1 mpk calculated as free form, read-out: AUC0-24h
Metric Name: AUC(0-t)
In your response, the unit should come after the numeric value.

Exam item: Could you share which AUC(0-t) value was measured for Cc1cc(-c2c[nH]c3ncc(-c4cc(C)c5c(c4)CCN(C)C5)nc23)ccc1C(=O)N(C)C [Compound A free form amorphous] ?
Marked response: 656 ng·h/mL

----------
# Procedure Text: Pharmacokinetic studies in rats
# Assay type: in vivo, male SD rats
# Experimental Parameters: male, SD, rat, plasma, 10 mg/kg, PO Dose 10 mpk calculated as free form
Metric Name: half-life
In your response, the unit should come after the numeric value.

Exam item: Could you share which half-life value was measured for Cc1cc(-c2c[nH]c3ncc(-c4cc(C)c5c(c4)CCN(C)C5)nc23)ccc1C(=O)N(C)C [Compound A free form amorphous] ?
Marked response: 4.05 h
